# Procedure details: Solubility of the drugs in a range of solvents
# Measurement parameters: organic solvent or mixture, Solubility, Solvent Ethyl acetate

- Structure smiles: "C[C@H]1O[C@@H](O[C@H]2[C@@H](O)C[C@H](O[C@H]3[C@@H](O)C[C@H](O[C@H]4CC[C@@]5(C)[C@H](CC[C@@H]6[C@@H]5C[C@@H](O)[C@]5(C)[C@@H](C7=CC(=O)OC7)CC[C@]65O)C4)O[C@@H]3C)O[C@@H]2C)C[C@H](O)[C@@H]1O"
  Unit text: "mg/mL"
  solubility: 20.4

* * *

# Procedure details: Solubility of the drugs in a range of solvents
# Measurement parameters: organic solvent or mixture, Solubility, Solvent Ethanol
Readout: solubility (µg/mL)

- Structure smiles: "C[C@H]1O[C@@H](O[C@H]2[C@@H](O)C[C@H](O[C@H]3[C@@H](O)C[C@H](O[C@H]4CC[C@@]5(C)[C@H](CC[C@@H]6[C@@H]5C[C@@H](O)[C@]5(C)[C@@H](C7=CC(=O)OC7)CC[C@]65O)C4)O[C@@H]3C)O[C@@H]2C)C[C@H](O)[C@@H]1O"
  Val: 5080

Source listed as patent US20090074845A1.
